# system: AXL receptor tyrosine kinase (AXL) (Homo sapiens)
# Construct: purchased Eurofins DiscoverX (KINOMEscan service)
# protocol.description: KINOMEscan competition binding assay (Eurofins DiscoverX), AXL
# condition.set: Table 1, DiscoverX Eurofins; read-out: Kd AXL
recorded.metric: Kd (nM)

I = C[C@@H]1CN(c2ccc3ncc(C#Cc4cncc(C(=O)Nc5ccc(CN6CCN(C)CC6)c(C(F)(F)F)c5)c4)n3n2)C[C@H](C)O1
II = CN1CCN(Cc2ccc(NC(=O)c3cncc(C#Cc4cnc5ccc(N6C[C@H]7C[C@@H]6CO7)nn45)c3)cc2C(F)(F)F)CC1
Which one would you say has the larger Kd value: I , or II ? Output the label that corresponds to your choice.
II
(II: 2.8 nM, I: 1.1 nM)

###

# system: MER Proto-Oncogene tyrosine kinase (MERTK) (Homo sapiens)
# Construct: purchased Eurofins DiscoverX (KINOMEscan service)
# protocol.description: KINOMEscan competition binding assay (Eurofins DiscoverX), MERTK
# condition.set: FIG. 7B, replicate 2; read-out: Kd MERTK, replicate 2
recorded.metric: Kd (nM)
Give a bare numeral; the unit nM is implied.

What value of measured Kd is listed for C[C@@H]1CN(c2ccc3ncc(C#Cc4cncc(C(=O)Nc5ccc(CN6CCN(C)CC6)c(C(F)(F)F)c5)c4)n3n2)C[C@H](C)O1 ?
2.1

###

# system: AXL receptor tyrosine kinase (AXL) (Homo sapiens, UniProt P30530)
# Construct: purchased Eurofins DiscoverX (KINOMEscan service)
# protocol.description: KINOMEscan competition binding assay (Eurofins DiscoverX), AXL
# condition.set: FIG. 6A, replicate 1; read-out: Kd AXL, replicate 1
recorded.metric: pKd
# reply with the number alone; pKd is -log10 of concentration in mol/L

Checklist item: pKd tested on AXL receptor tyrosine kinase (AXL) (Homo sapiens, UniProt P30530), entry C[C@@H]1CN(c2ccc3ncc(C#Cc4cncc(C(=O)Nc5ccc(CN6CCN(C)CC6)c(C(F)(F)F)c5)c4)n3n2)C[C@H](C)O1 , value?
9.11

###

# system: MER Proto-Oncogene tyrosine kinase (MERTK) (Homo sapiens)
# Construct: purchased Eurofins DiscoverX (KINOMEscan service)
# Sequence (Q12866 21-999): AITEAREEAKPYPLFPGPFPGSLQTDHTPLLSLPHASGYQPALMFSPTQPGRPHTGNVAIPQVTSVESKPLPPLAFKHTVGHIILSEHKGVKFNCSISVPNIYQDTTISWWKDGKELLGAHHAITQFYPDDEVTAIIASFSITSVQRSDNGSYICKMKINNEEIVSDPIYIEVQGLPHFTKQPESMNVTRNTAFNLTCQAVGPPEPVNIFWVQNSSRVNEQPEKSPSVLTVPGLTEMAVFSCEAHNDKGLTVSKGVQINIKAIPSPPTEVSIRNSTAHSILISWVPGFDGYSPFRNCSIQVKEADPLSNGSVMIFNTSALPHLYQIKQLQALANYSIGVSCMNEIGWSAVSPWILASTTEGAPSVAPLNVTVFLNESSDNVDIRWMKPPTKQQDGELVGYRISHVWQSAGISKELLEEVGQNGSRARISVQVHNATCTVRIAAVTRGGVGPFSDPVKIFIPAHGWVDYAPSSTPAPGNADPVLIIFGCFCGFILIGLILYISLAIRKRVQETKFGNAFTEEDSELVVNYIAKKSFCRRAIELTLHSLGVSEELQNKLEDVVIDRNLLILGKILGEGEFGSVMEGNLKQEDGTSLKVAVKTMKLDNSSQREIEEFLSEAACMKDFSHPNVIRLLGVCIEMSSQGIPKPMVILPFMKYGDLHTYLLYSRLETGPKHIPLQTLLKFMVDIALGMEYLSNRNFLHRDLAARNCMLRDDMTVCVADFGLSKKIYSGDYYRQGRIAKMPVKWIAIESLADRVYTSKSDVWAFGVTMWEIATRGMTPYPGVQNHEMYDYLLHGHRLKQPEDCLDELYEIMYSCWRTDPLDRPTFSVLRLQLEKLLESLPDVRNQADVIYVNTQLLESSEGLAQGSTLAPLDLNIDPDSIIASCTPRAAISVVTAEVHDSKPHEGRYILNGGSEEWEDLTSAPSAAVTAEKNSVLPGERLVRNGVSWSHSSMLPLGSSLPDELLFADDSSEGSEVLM
# protocol.description: KINOMEscan competition binding assay (Eurofins DiscoverX), MERTK
# condition.set: Table 1, DiscoverX Eurofins; read-out: Kd MERTK
pKd: −log10 of the molar value.
This section presents compounds with their documented pKd values.

Use these answered entries as a reference point.
C[C@@H]1CN(c2ccc3ncc(C#Cc4cncc(C(=O)Nc5ccc(CN6CCN(C)CC6)c(C(F)(F)F)c5)c4)n3n2)C[C@H](C)O1 ... > 9.77
CN1CCN(Cc2ccc(NC(=O)c3cncc(C#Cc4cnc5ccc(N6CC7(COC7)C6)nn45)c3)cc2C(F)(F)F)CC1 ... 9.70
CN1CCN(Cc2ccc(NC(=O)c3cncc(C#Cc4cnc5ccc(N6C[C@H]7C[C@@H]6CO7)nn45)c3)cc2C(F)(F)F)CC1 ... > 9.77

Turning now to a further record.
Entry CN1CCN(Cc2ccc(NC(=O)c3cncc(C#Cc4cnc5ccc(N6C[C@@H]7C[C@H]6CO7)nn45)c3)cc2C(F)(F)F)CC1 : reported pKd = ?
> 9.77

###

# system: AXL receptor tyrosine kinase (AXL) (Homo sapiens)
# Construct: purchased Eurofins DiscoverX (KINOMEscan service)
# Sequence (P30530 26-894): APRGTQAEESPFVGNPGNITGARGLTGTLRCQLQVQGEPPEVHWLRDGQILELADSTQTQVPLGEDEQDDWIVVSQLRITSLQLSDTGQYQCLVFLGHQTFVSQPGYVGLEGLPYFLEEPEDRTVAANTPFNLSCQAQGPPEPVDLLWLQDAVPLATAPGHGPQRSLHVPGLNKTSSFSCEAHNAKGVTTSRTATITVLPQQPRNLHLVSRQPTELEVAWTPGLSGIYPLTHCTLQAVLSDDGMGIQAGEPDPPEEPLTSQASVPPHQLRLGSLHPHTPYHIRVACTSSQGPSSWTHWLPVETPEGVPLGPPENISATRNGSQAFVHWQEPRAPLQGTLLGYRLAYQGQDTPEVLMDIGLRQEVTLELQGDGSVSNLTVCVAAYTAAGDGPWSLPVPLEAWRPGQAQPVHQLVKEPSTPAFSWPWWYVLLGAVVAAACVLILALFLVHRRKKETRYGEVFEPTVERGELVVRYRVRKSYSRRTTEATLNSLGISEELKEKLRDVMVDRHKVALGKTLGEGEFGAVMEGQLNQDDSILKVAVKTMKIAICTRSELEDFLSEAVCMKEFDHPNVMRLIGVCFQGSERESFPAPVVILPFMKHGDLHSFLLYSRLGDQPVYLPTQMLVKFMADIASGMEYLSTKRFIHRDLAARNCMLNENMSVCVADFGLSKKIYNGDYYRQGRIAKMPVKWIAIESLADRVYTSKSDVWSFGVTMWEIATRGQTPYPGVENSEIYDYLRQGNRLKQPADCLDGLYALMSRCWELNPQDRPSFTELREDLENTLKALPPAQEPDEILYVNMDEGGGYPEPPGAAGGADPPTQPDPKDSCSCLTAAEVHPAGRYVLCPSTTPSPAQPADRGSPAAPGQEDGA
# protocol.description: KINOMEscan competition binding assay (Eurofins DiscoverX), AXL
# condition.set: FIG. 6B, replicate 2; read-out: Kd AXL, replicate 2
recorded.metric: Kd (nM)
Answer in nM, number only, no unit symbol.

So what's the measured Kd for this one? C[C@@H]1CN(c2ccc3ncc(C#Cc4cncc(C(=O)Nc5ccc(CN6CCN(C)CC6)c(C(F)(F)F)c5)c4)n3n2)C[C@H](C)O1
1.3

###

Listed below: GI50 values for each entry.
# Test system: MDA-MB-231 (breast cancer)
# protocol.description: Growth inhibition of MDA-MB-231 (NCI-60 human tumor cell line screen)
# Format: cell-based
# condition.set: NCI-60 screening
Your answer is read as nM, so omit the unit and give the number.

Known results for compounds:
CN(C)CCNc1ccc2ncc(C#Cc3cncc(C(=O)Nc4ccc(CN5CCN(C)CC5)c(C(F)(F)F)c4)c3)n2n1 ... 571
CN1CCN(Cc2ccc(NC(=O)c3cncc(C#Cc4cnc5ccc(N)nn45)c3)cc2C(F)(F)F)CC1 ... 413
CN(C)CCN(C)c1ccc2ncc(C#Cc3cncc(C(=O)Nc4ccc(CN5CCN(C)CC5)c(C(F)(F)F)c4)c3)n2n1 ... 889

GI50 for CN1CCN(Cc2ccc(NC(=O)c3cncc(C#Cc4cnc5ccc(N6CCOCC6)nn45)c3)cc2C(F)(F)F)CC1 ?
35

###

# system: p70S6K (Homo sapiens)
# Sequence (P23443 whole entry): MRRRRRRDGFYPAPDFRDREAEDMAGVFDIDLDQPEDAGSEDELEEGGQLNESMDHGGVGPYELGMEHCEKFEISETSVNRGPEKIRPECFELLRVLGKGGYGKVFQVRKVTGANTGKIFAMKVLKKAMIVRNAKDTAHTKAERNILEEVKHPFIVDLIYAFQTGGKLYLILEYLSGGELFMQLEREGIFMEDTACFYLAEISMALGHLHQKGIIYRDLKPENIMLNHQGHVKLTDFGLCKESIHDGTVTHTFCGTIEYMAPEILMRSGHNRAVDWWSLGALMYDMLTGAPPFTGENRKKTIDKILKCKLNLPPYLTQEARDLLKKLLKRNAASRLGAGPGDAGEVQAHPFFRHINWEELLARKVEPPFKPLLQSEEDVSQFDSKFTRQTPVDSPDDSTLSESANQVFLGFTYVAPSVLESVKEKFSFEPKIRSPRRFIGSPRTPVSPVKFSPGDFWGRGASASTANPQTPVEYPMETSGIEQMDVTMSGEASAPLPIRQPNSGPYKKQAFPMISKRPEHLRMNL
# protocol.description: p70S6K inhibition, in vitro studies at Reaction Biology Corporation
# Format: biochemical
# condition.set: 25 nM compound, [ATP]=10 uM
recorded.metric: inhibition of p70S6K (%)

CN1CCN(Cc2ccc(NC(=O)c3cncc(C#Cc4cnc5ccc(N6CCN(C)CC6)nn45)c3)cc2C(F)(F)F)CC1 [HSND77] ... 95
CN1CCN(Cc2ccc(NC(=O)c3cncc(C#Cc4cnc5ccc(N6CCSCC6)nn45)c3)cc2C(F)(F)F)CC1 [HSND79] ... 95
Cc1ccc(C(=O)Nc2ccc(CN3CCN(C)CC3)c(C(F)(F)F)c2)cc1C#Cc1cnc2cccnn12 [ponatinib, Ponatinib, reference compound] ... 38
C[C@@H]1CN(c2ccc3ncc(C#Cc4cncc(C(=O)Nc5ccc(CN6CCN(C)CC6)c(C(F)(F)F)c5)c4)n3n2)C[C@H](C)O1 [HSND80] ... 97
